For each of the compounds below, state its Population Tubulin-Different-Phenotype (%).
Tested on: Fibroblast
Assay Explanation: Multiplex assay against human fibroblast
Type: toxicity, cell-based
Condition Details: 24 h, 1 µM, compound concentration 1 uM, replicate 1
Give bare numbers, in %.

Known Population Tubulin-Different-Phenotype (%) results, listed for orientation:
1) N#Cc1cc(F)cc(-c2nc(-c3ccc(F)cn3)no2)c1; 18
2) COc1cccc2c1c(NS(=O)(=O)c1ccc(Cl)s1)nn2Cc1cccc(CNC(=O)C(C)(C)O)c1; 28
3) CC[C@@H](C)Nc1nc(C)nc2c(-c3ccc(OC)nc3C)c(C)nn12 [PEXACERFONT]; 38
4) CC(C)COc1ccc(CNC(=O)N(Cc2ccc(F)cc2)C2CCN(C)CC2)cc1 [PIMAVANSERIN]; 47
5) CC(C)c1noc(N2CCC(COc3ccc(-c4ccc(S(C)(=O)=O)cc4)nc3)CC2)n1 [GSK-1292263]; 17

Provide reported Population Tubulin-Different-Phenotype (%) for each item, in the same order as listed.
1. CC(C)(C)c1cc(NC(=O)Nc2ccc(-c3cn4c(n3)sc3cc(OCCN5CCOCC5)ccc34)cc2)no1 [QUIZARTINIB]
2. Cc1c(CC(=O)O)c2cccnc2n1Cc1ccc(S(C)(=O)=O)cc1C(F)(F)F [FEVIPIPRANT]
3. CCCCCC(O)/C=C/[C@H]1C(=O)CC(O)C1C/C=C\CCCC(=O)O (some centres undefined)
4. Br.CS(=O)(=O)Nc1c(O)ccc2c1CCCC2C1=NCCN1 (centres undefined)

1: 32; 2: 23; 3: 21; 4: 16

----------
System: U2OS
Assay Explanation: Multiplex assay against U2OS
Format: toxicity, cell-based
Condition Details: human, 48 h, 1 µM, compound concentration 1 uM, replicate 2
For each of the compounds below, state its Population Mitotic Cells (%).
Answers are plain numbers, in %.

1. CCCCC1=NC2(CCCC2)C(=O)N1Cc1ccc(-c2ccccc2-c2nnn[nH]2)cc1; 5
2. N#Cc1c(Oc2cccc(OS(=O)(=O)CCCC(F)(F)F)c2)cccc1C(F)(F)F; 0
3. CC(C)(C)c1cc(NC(=O)Nc2ccc(-c3cn4c(n3)sc3cc(OCCN5CCOCC5)ccc34)cc2)no1; 26
4. CCc1cc2cc(NS(=O)(=O)c3ccc(C#N)cc3)ccc2n(CC)c1=O; 15
5. COC[C@@H](c1ccc(C(F)(F)F)cc1)N1CCN(C2(C)CCN(C(=O)c3c(C)ncnc3C)CC2)C[C@@H]1C.O=C(O)/C=C\C(=O)O [VICRIVIROC MALEATE]; 6

Provide reported Population Mitotic Cells (%) for each item, in the same order as listed.
1. COc1cccc2c1c(NS(=O)(=O)c1ccc(Cl)s1)nn2Cc1cccc(CNC(=O)C(C)(C)O)c1
2. Cc1cccc(NC(=O)CN2CCC(c3ccccn3)CC2)c1.Cl.Cl
3. COc1ccccc1N1CCN(C[C@@H](C(=O)NC(C)(C)C)c2ccccc2)CC1.Cl.Cl

25
5
16

----------
For each of the compounds below, state its Population Apoptotic (%).
System: Fibroblast
Assay Explanation: Multiplex assay against human fibroblast
Format: toxicity, cell-based
Condition Details: 12 h, 1 µM, compound concentration 1 uM, replicate 2
One number for each entry, in %.

Known Population Apoptotic (%) results, listed for orientation:
1. Cc1cccc(NC(=O)CN2CCC(c3ccccn3)CC2)c1.Cl.Cl; 33
2. CCCCC(=O)N(Cc1ccc(-c2ccccc2-c2nnn[nH]2)cc1)[C@H](C(=O)O)C(C)C; 44
3. Cc1onc(-c2ccccc2Cl)c1C(=O)N(C)c1ccc(Cl)cc1; 35
4. C[C@H](N)COC(=O)[C@@H](CCCCN)NC(=O)Cc1c(-c2ccc3ccccc3c2)[nH]c2c1ccc1ccccc12; 50
5. CCCOc1ccc2[nH]cc(C3=CCNCC3)c2n1.Cl; 48
6. CC(C)c1noc(N2CCC(COc3ccc(-c4ccc(S(C)(=O)=O)cc4)nc3)CC2)n1; 29

Kindly review the next compound as well.
I have this compound here, CN1CCN(c2cc(-c3ccccc3)nc(N)n2)CC1 , and I need its recorded Population Apoptotic (%). 37
